The measurements presented in this section are drawn from patent US9388226B2.

- System: ACPAs in sera from patients suffering from RA
- protocol.details: Reactivity of fibrin-derived citrullinated peptides with sera from RA patients having ACPAs
- Format: binding, human
- measurement.conditions: 20 sera from RA patients having detectable ACPAs
Non-standard residues stand in square brackets, D forms with d. No end group written: not given here. Cit = NC(=O)NCCC[C@H](N)C(=O)O
The following sequences are shown together with reported NUMBER OF REACTIVE SERA OUT OF THE 20 TESTED values.

Examples from the recorded data:
INSERT INTO results (sequence_data, test_result) VALUES
  ('VDIDIKIXSCXGSCS (VDIDIKI[Cit]SC[Cit]GSCS; cysteine pairing not given here) [α171-185cit178, 181, fibrinogen α-chain derived citrullinated peptide, X = citrullyl residue]', 9),
  ('XPAPPPISGGGYXAX ([Cit]PAPPPISGGGY[Cit]A[Cit]-NH2) [β60-74cit60, 72, 74, fibrinogen β-chain derived citrullinated peptide, X = citrullyl residue]', 14),
  ('GPXVVEXHQSACKDS (GP[Cit]VVE[Cit]HQSACKDS) [α36-50cit38, 42, fibrinogen α-chain derived citrullinated peptide, X = citrullyl residue]', 12),
  ('XGHAKSXPVXGIHTS ([Cit]GHAKS[Cit]PV[Cit]GIHTS) [α621-635cit621, 627, 630, fibrinogen α-chain derived citrullinated peptide, X = citrullyl residue]', 10);

May I ask what NUMBER OF REACTIVE SERA OUT OF THE 20 TESTED has been recorded for SGIGTLDGFXHXHPD (SGIGTLDGF[Cit]H[Cit]HPD) [α501-515cit510, 512, fibrinogen α-chain derived citrullinated peptide, X = citrullyl residue] ?
9
